Target: T1, cynomolgus PD-1 ECD (Acro Biosystems cat. no. PD1-05223) (cynomolgus, UniProt B0LAJ3 25-170)
T1 construct: Bought monomeric ECD; not shown: any purification tag of the vendor's product (Acro Biosystems PD1-05223, probably a His tag)
T1 sequence (B0LAJ3 entry or part of it limits assumed): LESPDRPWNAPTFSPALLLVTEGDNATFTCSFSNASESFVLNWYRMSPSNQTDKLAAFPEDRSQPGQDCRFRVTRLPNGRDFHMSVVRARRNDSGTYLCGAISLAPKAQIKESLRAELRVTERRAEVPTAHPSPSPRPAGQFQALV
Test: SPR, antibody on sensor, monomeric PD-1 ECD in solution
Description: The kinetic binding analysis was performed by Surface Plasmon Resonance (SPR) using a Continuous Flow Microspotter (CFM, Wasatch Microfluidics, US) combined with an Ibis MX96 SPR instrument (IBIS Technologies, The Netherlands). […] After completion, the recorded binding responses were fitted to a simple Langmuir 1:1 binding model with Scrubber 2 software for calculation of the on-rate (kₒₙ or kₐ), off-rate (koff or kd) and affinity (KD) constants.
reportedMetric: kon (M⁻¹ s⁻¹)

>>> observedresult("antibody 18413 (antibody, V domains shown, Tested as human IgG1 L234A/L235A (LALA), kappa) VH: EVQLVESGGGLVQPGGSLRLSCAASGFTFSSFVMSWVRQAPGKGLEWLSTISGGGGSTYYADSVKGRFTISRDNSKNTLYLQMNSLRAEDTAVYYCAKDWDLYYFDYWGQGTLVTVSS VL: DIQLTQSPSSVPASVGDRVTITCRASQGISNWLAWYQQKPGKAPKLLIYAASSLQSGVPSRFSGSGSGTDFTLTISSLQPEDFATYYCQQANSFPLTFGGGTKVEIKR")
97000
>>> observedresult("antibody 18098 (antibody, V domains shown, Tested as human IgG1 L234A/L235A (LALA), kappa) VH: QVQLQESGGGLVRPGGSLRLSCAASGFTFSSFAMNWVRQAPGKGLVWVSTITGGGTTSYYADSVKGRFTISRDNSKSTLFLQMNSLRAEDTAVYYCAKWGSWSAGAFDIWGQGTTVTVSS VL: DIQLTQSPSSVSASVGDRVTITCRASQGISSWLAWYQQKPGKAPKLLIYAASSLQSGVPSRFSGSGSGTDFTLTISSLQPEDFATYYCQQANSFPWTFGQGTKVEIKR")
39000
>>> observedresult("antibody 18400 (antibody, V domains shown, Tested as human IgG1 L234A/L235A (LALA), kappa) VH: QLQLQESGPGLVKPSGTLSLTCAVSGGSISSSNWWSWVRQPPKKGLEWVGEIFHDGTTSYNPSLKSRVTMSVDKSKNQFSLKLSSVTAADTAVYYCARGNWGSGALDIWGPGTMVTVSS VL: EIVMTQSPSPLSASVGDRVTITCRASQGIRNDLGWYQQKPGKAPKLLIYAASSLQSGVPSRFSGSGSGTDFTLTISSLQPEDFATYYCLQDYNYPRTFGQGTKVEIKR")
230000

The measured values listed here are drawn from patent US20190367616A1.
